target: PI4KB (human); assay: KINOMEscan competition binding; conditions: compound 10.0 µM
Consider the following compounds and their measured kinase still bound, per cent of control readings.

{"columns": ["line-notation", "experimental-target", "kinase still bound, per cent of control / %"],
 "data": [
  ["CN(C)C/C=C/C(=O)Nc1cccc(Nc2ncc3c(n2)N(C)c2ccccc2C(=O)N3C)c1", "PI4KB (human)", 87],
  ["CCOc1cc2ncc(C#N)c(Nc3ccc(OCc4ccccn4)c(Cl)c3)c2cc1NC(=O)/C=C/CN(C)C", "PI4KB (human)", 100],
  ["C=CC(=O)Nc1cccc(Nc2nc(N[C@H]3CC[C@H](N(C)C)CC3)nc3c2ncn3C(C)C)c1", "PI4KB (human)", 100],
  ["CCC(=O)N1CCN(c2ccc(-n3c(=O)ccc4cnc5ccc(-c6cnc7ccccc7c6)cc5c43)cc2C(F)(F)F)CC1", "PI4KB (human)", 96]
]}

====

target: NEK2 (human); assay: KINOMEscan competition binding; settings: compound 10.0 µM
Consider the following compounds and their measured kinase still bound, per cent of control readings.

{"columns": ["line-notation", "unit-string", "kinase still bound, per cent of control"],
 "data": [
  ["C=CC(=O)Nc1cc(NC(=O)c2ccc(C)c(NC(=O)c3ccno3)c2)cc(C(F)(F)F)c1", "%", 100],
  ["CCC(=O)N1CCN(c2ccc(-n3c(=O)ccc4cnc5ccc(-c6cnc7ccccc7c6)cc5c43)cc2C(F)(F)F)CC1", "%", 90],
  ["Cc1ccc(C(=O)Nc2cccc(C(F)(F)F)c2)cc1Nc1cncc(C(N)=O)c1", "%", 100],
  ["Cc1cc([C@@H](C)Nc2ccccc2C(=O)O)c2nc(N3CCOCC3)cc(=O)n2c1", "%", 71],
  ["CN(C)C/C=C/C(=O)Nc1cccc(Nc2ncc3c(n2)N(C)c2ccccc2C(=O)N3C)c1", "%", 62],
  ["OCCCNc1cc(-c2ccnc(Nc3cccc(Cl)c3)n2)ccn1", "%", 100],
  ["N#Cc1c(NC(=O)c2cccc3ccccc23)sc2c1CCCC2", "%", 65],
  ["Cc1ccc(NC(=O)c2cccc(C(C)(C)C#N)c2)cc1Nc1ccc2ncn(C)c(=O)c2c1", "%", 100],
  ["COc1cc(N2CCN(C)CC2)ccc1Nc1nc(N)c(C(=O)c2c(Cl)cccc2Cl)s1", "%", 100],
  ["CC[C@@H]1C(=O)N(C)c2cnc(Nc3ccc(C(=O)NC4CCN(C)CC4)cc3OC)nc2N1C1CCCC1", "%", 17],
  ["CCOc1cc2ncc(C#N)c(Nc3ccc(OCc4ccccn4)c(Cl)c3)c2cc1NC(=O)/C=C/CN(C)C", "%", 12],
  ["COc1cc(C(=O)NC2CCN(C)CC2)ccc1Nc1ncc2c(n1)N(C1CCCC1)CCC(=O)N2C(C)C", "%", 100],
  ["Nc1ccc(-c2ccc3ncc4ccc(=O)n(-c5cccc(C(F)(F)F)c5)c4c3c2)cn1", "%", 100],
  ["CCN1CCN(Cc2ccc(Nc3ncc4c(n3)N(C)c3ccccc3C(=O)N4C)cc2C(F)(F)F)CC1", "%", 100],
  ["CCCS(=O)(=O)Nc1ccc(F)c(C(=O)c2c[nH]c3ncc(-c4ccc(Cl)cc4)cc23)c1F", "%", 71]
]}

Cited source: the kinase profiling compilation of Christmann-Franck et al. (2016)
